# assayed_target: MRGPRX4 (Homo sapiens, UniProt Q96LA9)
# Sequence (Q96LA9 whole entry): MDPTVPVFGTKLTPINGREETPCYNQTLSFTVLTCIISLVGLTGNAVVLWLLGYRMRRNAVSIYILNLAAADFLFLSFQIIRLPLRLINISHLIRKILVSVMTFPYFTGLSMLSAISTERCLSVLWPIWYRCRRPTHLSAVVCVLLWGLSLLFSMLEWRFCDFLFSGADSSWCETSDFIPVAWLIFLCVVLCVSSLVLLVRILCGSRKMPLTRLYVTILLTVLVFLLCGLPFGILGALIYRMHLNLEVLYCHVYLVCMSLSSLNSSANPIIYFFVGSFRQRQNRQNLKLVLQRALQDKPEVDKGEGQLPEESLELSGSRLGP
# measurement_description: MRGPRX4 activation, Fluo-8 Ca2+ FLIPR assay in HEK293T cells stably expressing MRGPRX4
# Format: cell-based
# condition_label: Conc. (Log[M]) −9
MRGPRX4 activation, fluorescence change (dF/F0), Average values, listed per item
# print the numeric value only

Some compounds with known MRGPRX4 activation, fluorescence change (dF/F0), Average results, for comparison:
C[C@H](CCCC(=O)O)[C@H]1CC[C@H]2[C@@H]3CC[C@@H]4C[C@H](O)CC[C@]4(C)[C@H]3C[C@H](O)[C@]12C [RC-2]: −0.018
CC[C@H]1[C@@H](OC(=O)c2cccc(I)c2)[C@H]2[C@@H]3[C@@H](O)C=C([C@H](C)CCC(=O)OC)[C@@]3(C)CC[C@@H]2[C@@]2(C)CCCC[C@@H]12 [3-3]: −0.014
CC[C@H]1[C@@H](OC(=O)c2cccc(I)c2)[C@@H]2[C@H](CC[C@]3(C)C([C@H](C)CCC(=O)OC)=CC[C@@H]23)[C@@]2(C)CCCC[C@@H]12 [3-1]: −0.001

Lookup: Can you look up the measured MRGPRX4 activation, fluorescence change (dF/F0), Average of CC(C[C@@H](C)[C@H]1CC[C@H]2[C@@H]3CC[C@@H]4CCCC[C@]4(C)[C@H]3CC[C@]12C)C(=O)O (stereo partly drawn) [2-1] for me?
Found: −0.091

Lookup: Try CC[C@H]1[C@@H](OC(=O)c2cccc(I)c2)[C@@H]2[C@H](CC[C@]3(C)C([C@H](C)CCC(=O)OC)=CC(=O)[C@@H]23)[C@@]2(C)CCCC[C@@H]12 [3-2] next.
Found: −0.035

Lookup: Another compound: C[C@H](CC/C=C/C(=O)O)[C@H]1CC[C@H]2[C@@H]3CC[C@@H]4C[C@H](O)CC[C@]4(C)[C@H]3CC[C@]12C [1-7]
Found: −0.034

----------
# assayed_target: MRGPRX4 (Homo sapiens)
# measurement_description: MRGPRX4 activation, Fluo-8 Ca2+ FLIPR assay in HEK293T cells stably expressing MRGPRX4
# Type: cell-based
# Set-up: key: fluorescence change dF/F0
# condition_label: E3-9, Conc. (Log[M]) −5.4
Mark condition met for reported MRGPRX4 activation, Average of 0.02 or greater; mark condition not met for anything smaller.

CC[C@H]1[C@@H](O)[C@@H]2[C@H](CC[C@]3(C)[C@@H]([C@H](C)CCNC(=O)NS(=O)(=O)c4cc(F)cc(F)c4)CC[C@@H]23)[C@@]2(C)CC[C@H](F)C[C@@H]12: condition not met
CC[C@H]1[C@@H](O)[C@@H]2[C@H](CC[C@]3(C)[C@@H]([C@H](C)CCNS(=O)(=O)C[C@]45CC[C@H](CC4=O)C5(C)C)CC[C@@H]23)[C@@]2(C)CCCC[C@@H]12: condition not met
[2H]C1CC[C@@]2(C)[C@@H](C1)[C@@H](CC)[C@@H](O)[C@@H]1[C@@H]2CC[C@]2(C)[C@@H]([C@H](C)CCC(=O)O)CC[C@@H]12 (stereo partly shown): condition not met
CC[C@H]1[C@@H](O)[C@@H]2[C@H](CC[C@]3(C)[C@@H]([C@H](C)CCNC(=O)NS(=O)(=O)c4ccc(Br)cc4OC(F)(F)F)CC[C@@H]23)[C@@]2(C)CC[C@H](F)C[C@@H]12: condition not met
CC[C@H]1[C@@H](O)[C@@H]2[C@H](CC[C@]3(C)[C@@H]([C@H](C)CCNC(=O)NS(=O)(=O)c4cccs4)CC[C@@H]23)[C@@]2(C)CCC(F)(F)C[C@@H]12: condition met

Next up:
Lookup: I'd appreciate it if you could say whether CC[C@H]1[C@@H](O)[C@@H]2[C@H](CC[C@]3(C)[C@@H]([C@H](C)CCNC(=O)NS(=O)(=O)c4cccs4)CC[C@@H]23)[C@@]2(C)CCCC[C@@H]12 has MRGPRX4 activation, Average at least equal to 0.02.
Found: condition not met

----------
# assayed_target: MRGPRX4 (Homo sapiens, UniProt Q96LA9)
# measurement_description: MRGPRX4 activation, Fluo-8 Ca2+ FLIPR assay in HEK293T cells stably expressing MRGPRX4
# Type: cell-based
# condition_label: E3-9, Conc. (Log[M]) −4.0
# binarize MRGPRX4 activation, Average: threshold 0.06 inclusive, high side 1, low side -1

CC[C@H]1[C@@H](O)[C@@H]2[C@H](CC[C@]3(C)[C@@H]([C@H](C)CCNC(=S)NS(=O)(=O)c4ccc(C(C)(C)CF)cc4)CC[C@@H]23)[C@@]2(C)CCC(F)(F)C[C@@H]12: -1
CC[C@H]1[C@@H](O)[C@@H]2[C@H](CC[C@]3(C)[C@@H]([C@H](C)COC(=O)NS(=O)(=O)c4ccc(N5CCCCC5)nc4)CC[C@@H]23)[C@@]2(C)CCCC[C@@H]12: 1
CC[C@H]1[C@@H](O)[C@@H]2[C@H](CC[C@]3(C)[C@@H]([C@H](C)CNC(=O)NS(=O)(=O)c4ccc(C(C)(C)CF)cc4)CC[C@@H]23)[C@@]2(C)CCCC[C@@H]12: -1
CC[C@H]1[C@@H](O)[C@@H]2[C@H](CC[C@]3(C)[C@@H]([C@H](C)CCNC(=O)NS(=O)(=O)c4cccs4)CC[C@@H]23)[C@@]2(C)CCCC[C@@H]12: 1

Next, consider the following compound.
Lookup: Tell me whether MRGPRX4 activation, Average is at least 0.06 here: CC[C@H]1[C@@H](O)[C@@H]2[C@H](CC[C@]3(C)[C@@H]([C@H](C)CNC(=O)NS(=O)(=O)c4ccc5c(c4)CCC(C)(C)O5)CC[C@@H]23)[C@@]2(C)CCCC[C@@H]12
Found: -1

----------
# assayed_target: human FXR (NR1H4) (Homo sapiens, UniProt Q96RI1)
# Sequence (Q96RI1 1-476 isoform Q96RI1-1): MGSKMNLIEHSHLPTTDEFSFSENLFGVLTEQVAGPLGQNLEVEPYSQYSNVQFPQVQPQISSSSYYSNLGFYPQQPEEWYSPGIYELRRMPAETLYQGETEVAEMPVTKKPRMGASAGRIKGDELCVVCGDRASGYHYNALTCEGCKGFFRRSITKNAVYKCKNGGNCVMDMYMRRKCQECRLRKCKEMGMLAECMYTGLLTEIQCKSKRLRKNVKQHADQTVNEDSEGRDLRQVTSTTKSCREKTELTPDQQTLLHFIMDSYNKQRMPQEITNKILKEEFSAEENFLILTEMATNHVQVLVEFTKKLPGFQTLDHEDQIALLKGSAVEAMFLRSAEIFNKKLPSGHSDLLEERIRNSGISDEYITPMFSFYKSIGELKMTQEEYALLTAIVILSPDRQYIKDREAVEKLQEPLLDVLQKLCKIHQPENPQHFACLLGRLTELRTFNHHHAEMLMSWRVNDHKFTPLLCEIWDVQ
# measurement_description: Human FXR (NR1H4) agonist assessment, FXRE-NanoLuc reporter in HEK293T cells
# Format: cell-based
# condition_label: FXR activation, HEK293T FXRE-NanoLuc reporter, 24 hr
experimental_endpoint: Efficacy (maximum measured induction of NanoLuc, normalized to CDCA set as 100%)

CC[C@H]1[C@@H](O)[C@@H]2[C@H](CC[C@]3(C)[C@@H]([C@H](C)CCNC(=O)NS(=O)(=O)c4cccs4)CC[C@@H]23)[C@@]2(C)CCCC[C@@H]12: C (100%<efficacy <=300%)
CC[C@H]1[C@@H](O)[C@@H]2[C@H](CC[C@]3(C)[C@@H]([C@H](C)CCNC(=O)NS(=O)(=O)c4ccc(C)cc4)CC[C@@H]23)[C@@]2(C)CCCC[C@@H]12: C (100%<efficacy <=300%)
CC[C@H]1[C@@H](O)[C@@H]2[C@H](CC[C@]3(C)[C@@H]([C@H](C)CCc4nnc(N)[nH]4)CC[C@@H]23)[C@@]2(C)CCCC[C@@H]12: C (100%<efficacy <=300%)
CCCCS(=O)(=O)NC(=O)NCC[C@@H](C)[C@H]1CC[C@H]2[C@@H]3[C@H](O)[C@H](CC)[C@@H]4CCCC[C@]4(C)[C@H]3CC[C@]12C: C (100%<efficacy <=300%)

----------
# assayed_target: UniProtKB Q96LA9
# measurement_description: MRGPRX4 activation, Fluo-8 Ca2+ FLIPR assay in HEK293T cells stably expressing MRGPRX4
# Type: cell-based
# Parameters: key: fluorescence change dF/F0
# condition_label: E3-9, Conc. (Log[M]) −7.8
experimental_endpoint: MRGPRX4 activation, Average
Answer field: number only, no words.

[2H]C1CC[C@@]2(C)[C@@H](C1)[C@@H](CC)[C@@H](O)[C@@H]1[C@@H]2CC[C@]2(C)[C@@H]([C@H](C)CCC(=O)O)CC[C@@H]12 (stereo partly drawn): 0.010
CC[C@H]1[C@@H](O)[C@@H]2[C@H](CC[C@]3(C)[C@@H]([C@H](C)CCNC(=O)NS(=O)(=O)c4ccc5c(c4)CCC(C)(C)O5)CC[C@@H]23)[C@@]2(C)CCCC[C@@H]12: 0.020
CC[C@H]1[C@@H](O)[C@@H]2[C@H](CC[C@]3(C)[C@@H]([C@H](C)CCNC(=O)C(=O)NS(=O)(=O)c4cccs4)CC[C@@H]23)[C@@]2(C)CCCC[C@@H]12: 0.011

Lookup: Give UniProtKB Q96LA9 MRGPRX4 activation, Average for [2H]C1([2H])CC[C@@]2(C)[C@@H](C1)[C@@H](CC)[C@@H](O)[C@@H]1[C@@H]2CC[C@]2(C)[C@@H]([C@H](C)CCNC(=S)NS(=O)(=O)c3cccs3)CC[C@@H]12
Found: 0.008

Lookup: Param item: CC[C@H]1[C@@H](O)[C@H]2[C@@H]3CC[C@](C)([C@H](C)CCNC(=O)NS(=O)(=O)C[C@]45CCC(CC4=O)C5(C)C)[C@H]3CC[C@@H]2[C@@]2(C)CC[C@H](F)C[C@@H]12
Found: 0.021

Lookup: Request: CC[C@H]1[C@@H](O)[C@@H]2[C@H](CC[C@]3(C)[C@@H]([C@H](C)CCNC(=O)NS(=O)(=O)c4ccc(Br)cc4OC(F)(F)F)CC[C@@H]23)[C@@]2(C)CC[C@H](F)C[C@@H]12
Found: 0.012
